Substrate: CCCCCC(=O)N[C@H]1CCOC1=O
Test: purified protein
Format: biochemical, Parageobacillus caldoxylosilyticus
Settings: pH 8.3, 25 °C, 2.5 mM bicine, 150 mM NaCl, 0.2 mM CoCl2
MEASUREMENT LABEL: kcat/Km (M⁻¹ s⁻¹)
Output spec: scalar in M⁻¹ s⁻¹, unitless text.

Look up kcat/Km for this protein: GcL (Parageobacillus caldoxylosilyticus NBRC 107762; Y222F) (protein, expressed in E. coli BL21(DE3)-pGro7/GroEL with CoCl2; bimetallic Fe/Co centre; dimer) MANVIKARPKLYVMDNGRMRMDKNWMIAMHNPATIHNPNAQTEFVEFPIYTVLIDHPEGKILFDTSCNPNSMGPQGRWAESTQQMFPWTATEECYLHNRLEQLKVRPEDIRYVVASHLHLDHAGCLEMFTNATIIVHEDEFNGALQCYARNQKEGAYIWADIDAWIKNNLQWRTVKRHEDNILLAEGVKVLNFGSGHAWGMLGLHVELPETGGIILASDAIFTAESYGPPIKPPGIIYDSLGYMNTVERIRRIAQETKSQVWFGHDAEQFKKFRKSTEGYYE
54100
